molecular target: 5-hydroxytryptamine receptor 7 (Homo sapiens, UniProt P34969); assay: Displacement of [3H]LSD from human recombinant 5HT7 receptor expressed in CHO cells at 100 uM by liquid scintillation counting relative to control; assay type: cell-based
Sequence (P34969 whole entry): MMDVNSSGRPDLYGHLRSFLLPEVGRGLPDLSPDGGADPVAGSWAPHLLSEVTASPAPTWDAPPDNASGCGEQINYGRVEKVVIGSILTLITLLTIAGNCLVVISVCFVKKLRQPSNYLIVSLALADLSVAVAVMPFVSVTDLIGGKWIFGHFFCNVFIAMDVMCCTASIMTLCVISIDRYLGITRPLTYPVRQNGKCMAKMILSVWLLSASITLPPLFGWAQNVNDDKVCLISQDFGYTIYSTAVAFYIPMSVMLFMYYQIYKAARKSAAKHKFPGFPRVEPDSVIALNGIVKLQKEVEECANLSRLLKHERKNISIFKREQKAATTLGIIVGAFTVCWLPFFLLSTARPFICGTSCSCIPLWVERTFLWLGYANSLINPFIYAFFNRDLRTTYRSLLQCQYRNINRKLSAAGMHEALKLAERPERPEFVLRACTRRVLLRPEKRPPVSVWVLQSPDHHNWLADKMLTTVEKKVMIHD
Definition: the class of an entry is the range in LOW = under 20%, MEDIUM = from 20% up to 40%, HIGH = 40% and over that contains its inhibition.

Just checking, what class would you give `CCC/C=C1\OC(=O)C2=C1CC[C@@H](O)[C@@H]2O` here?
LOW

Just checking, what class would you give `CCCCNS(=O)(=O)c1ccccc1` here?
LOW

Just checking, what class would you give `COc1cc(C=O)ccc1O` here?
LOW

Just checking, what class would you give CCC/C=C1\OC(=O)C2=CC3CCC21[C@]1(OC(=O)c2ccccc21)[C@@H]3CCC (stereo not given in full) here?
LOW

Just checking, what class would you give `CC(C)=CCOc1c2occc2cc2ccc(=O)oc12` here?
HIGH

Just checking, what class would you give CCC/C=C1\OC(=O)c2ccccc21 [Z-butylidenephthalide] here?
HIGH

Just checking, what class would you give CC/C=C\C/C=C\C/C=C\CCCCCCCC(=O)OCC(O)COC(=O)CCCCCCCC/C=C\C/C=C\C=C\CC (stereo not given) here?
LOW

Just checking, what class would you give `CCC/C=C1\OC(=O)C2=C1CCC=C2` here?
MEDIUM

Just checking, what class would you give `C=C[C@@H](O)C#CC#C[C@@H](O)/C=C\CCCCCCC` here?
HIGH

Just checking, what class would you give `CCCCCCC/C=C\[C@H](O)C#CC#C[C@@H](O)CC` here?
LOW

Just checking, what class would you give `C=C[C@@H](O)C#CC#C[C@@H](O)/C=C\CCCCCCCCOC(C)=O` here?
HIGH

Just checking, what class would you give CCC/C=C1\OC(=O)C2=C1CCC(O)C2OC (stereo not given) here?
MEDIUM

Just checking, what class would you give `CCCCCCC/C=C\[C@H](O)C#CC#CC(=O)CCOC` here?
HIGH

Just checking, what class would you give COc1cc(/C=C/C(=O)OCC(O)C(OC)c2ccc(O)c(OC)c2)ccc1O (stereo not given) here?
MEDIUM

Just checking, what class would you give `CC[C@H](/C=C/[C@@H](C)[C@H]1CC[C@H]2[C@@H]3CC=C4C[C@@H](O)CC[C@]4(C)[C@H]3CC[C@]12C)C(C)C` here?
LOW

Just checking, what class would you give C/C=C(/C)C(=O)OC(C)CCC1OC(=O)c2ccccc21 (stereo not given) here?
MEDIUM

Just checking, what class would you give CCC/C=C1\OC(=O)C23C=CCCCC12C1(OC(=O)c2ccccc21)C3CCC (stereo not given) here?
MEDIUM

Just checking, what class would you give `COc1cc(/C=C/C(=O)OCCc2ccc(O)cc2)ccc1O` here?
HIGH

Just checking, what class would you give C=C[C@H](O)C#CC#C[C@@H](O)C1OC1CCCCCCC (stereo not given in full) here?
MEDIUM

// provenance: ChEMBL document CHEMBL1157305
